Data origin, for the record: patent US20110294722A1

test system: Pseudomonas syringae pv. syringae; assay type: cell-based; details: Pseudomonas syringae pv. syringae; at least 4 days of incubation
No end group written: not given here.
Parameter LC (lethal concentration, 100% inhibition): see the listing below.
measured endpoint: LC (lethal concentration, 100% inhibition) (µg/mL)

>>> df
                   substance  censoring_qualifier  experimental_result
0  RKKKKKIIKKLI-NH2 [SP1-21]                    =                  2.5
1   RKKKIKIIKRLI-NH2 [SP1-8]                    =                  0.5
2    KRKKLLKRLI-NH2 [SP1-16]                    =                  2.5
3  RKKKFKFFKRFF-NH2 [SP1-13]                    =                  0.5
4  RKKRKKLLKRLI-NH2 [SP1-20]                    =                   10
5    KKKKIIKRLI-NH2 [SP1-17]                    >                   10
6   RKKKLKIIKRLI-NH2 [SP1-7]                    =                 0.25
7   RKKKLKVVKRLV-NH2 [SP1-6]                    >                   10

----------
tested on: Pseudomonas syringae pv. tomato; type: cell-based
No end group written: not given here.
measured endpoint: MIC (>90% inhibition)

>>> print(df.to_string())
                   substance      measured_endpoint  experimental_result
0   RKKRLKLLKRLL-NH2 [SP1-1]  MIC (>90% inhibition)        >10/>10 μg/ml
1   RKKKIKIIKRLI-NH2 [SP1-8]  MIC (>90% inhibition)          10/10 μg/ml
2  RKKKFKFFKRFF-NH2 [SP1-13]  MIC (>90% inhibition)            1.0 µg/mL
3  RKKKFKIFKRLF-NH2 [SP1-14]  MIC (>90% inhibition)     1.0 to 5.0 µg/mL
4     RKKRLKLLKRLV-NH2 [SP1]  MIC (>90% inhibition)          10/10 μg/ml
5   RKKKLKIIKRLI-NH2 [SP1-7]  MIC (>90% inhibition)          10/10 μg/ml

----------
test system: Pseudomonas syringae pv. syringae; type: cell-based; conditions: Pseudomonas syringae pv. syringae; at least 4 days of incubation
No end group written: not given here.
The threshold is inclusive: LC (lethal concentration, 100% inhibition) of exactly 1 µg/mL counts as 1; values below receive 0.

>>> df
                   substance  classification
0  KKKKKKIIKKII-NH2 [SP1-22]               1
1  RKKKAKIIKKII-NH2 [SP1-10]               1
2  RKKKFKIFKRLF-NH2 [SP1-14]               0
3  RKKRKKLLKRLL-NH2 [SP1-18]               1
4   RKKRVKLLKRLV-NH2 [SP1-2]               1
5  RKKRKKLIKRLI-NH2 [Sp1-19]               1
6     RKKRLKLLKRLV-NH2 [SP1]               0
7  RKKKFKFFKRLF-NH2 [SP1-12]               0
8   RKKRLKVVKRLV-NH2 [SP1-4]               1
9  RKKKLKFFKRLF-NH2 [Sp1-11]               1

----------
Parameter MIC (>90% inhibition): see the listing below.
test system: Pectobacterium carotovorum; type: cell-based; conditions: Pectobacterium carotovorum; 1-2 days at 25° C.
No end group written: not given here.
measured endpoint: MIC (>90% inhibition)

                   substance  experimental_result
0    KRKKLLKRLI-NH2 [SP1-16]        >10/>10 μg/ml
1   RKKKIKIIKRLI-NH2 [SP1-8]        >10/>10 μg/ml
2  RKKKLKFFKRLF-NH2 [Sp1-11]        >10/>10 μg/ml
3   RKKRLKVVKRLV-NH2 [SP1-4]        >10/>10 μg/ml
4  RKKKFKIFKRLF-NH2 [SP1-14]        >10/>10 μg/ml
5   RKKKLKIIKRLI-NH2 [SP1-7]        >10/>10 μg/ml

----------
tested on: Pseudomonas syringae pv. syringae; assay type: cell-based; details: Pseudomonas syringae pv. syringae; at least 4 days of incubation
No end group written: not given here.
measured endpoint: LC (lethal concentration, 100% inhibition) (µg/mL)

>>> print(df.to_string())
                  substance  experimental_result
0  RKKKVKLLKRLV-NH2 [SP1-3]                  1.0
1   KRKKLLKRLL-NH2 [SP1-15]                  1.0
2  RKKKIKIIKKII-NH2 [SP1-9]                  1.0
